Reference for the values: PubChem BioAssay (NCI)

system: HT29 colon; experiment: NCI-60 one-dose screen, 48 h; settings: 10 µM unless noted
The panel holds about 83,000 compounds, 20% with a hit somewhere; the sample as a whole holds those more often. Active and inactive are the calls of the source. Rule for the calls: active = growth percent below 10; inactive = the rest.
Possible outcomes: active, inactive

{"columns": ["smi", "classAssignment"],
 "data": [
  ["C=CC(=O)Nc1cccc(Oc2nccc(Nc3nnc(C4CC4)s3)n2)c1", "inactive"],
  ["O=C(Nc1ccc(-n2cc(-c3ccncc3)c(-c3ccc(Cl)c(O)c3)n2)cc1)N1CCOCC1", "inactive"],
  ["N#C/C(=C\\c1ccc(-c2ccccc2F)o1)c1nc(-c2ccco2)cs1", "inactive"],
  ["COc1cccc(-c2nc3sccn3c2-c2ccnc(NCCNS(=O)(=O)c3cccc(Cl)c3)c2)c1", "inactive"],
  ["COc1ccc(Nc2nnc(SCc3ccccc3F)s2)cc1", "inactive"],
  ["CCCCCCCCCCCCCCCCCC1=NCCN1CCOC1=C(Cl)C(=O)c2ccccc2C1=O", "inactive"],
  ["CCCCNC(=O)Oc1ccc2c(=O)c3sc4c(=O)c5ccccc5c(=O)c4c3c(=O)c2c1", "active"],
  ["COc1ccc(/C=N\\NC(=O)c2cc(-c3ccc(Br)cc3)n(-c3ccc(S(N)(=O)=O)cc3)n2)cc1", "inactive"],
  ["NC(=S)Nc1cccc(O)c1", "inactive"],
  ["CCc1ccccc1NC(=O)/C(C#N)=C/c1ccc(OC)cc1", "inactive"]
]}

###

tested on: COLO 205 colon; assay: NCI-60 one-dose screen, 48 h; conditions: 10 µM unless noted
Compounds without any hit were thinned out: in the full panel of roughly 83,000, 20% have a hit. Activity calls are given as the source filed them. How the source made its calls: active means growth percent below 10; inactive means the rest.
Possible outcomes: 1 (yes) (active), 0 (no) (inactive)

{"columns": ["compound", "classAssignment"],
 "data": [
  ["Cc1cc(NCc2cc(Nc3ccnc4cc(Cl)ccc34)ccc2F)nc(N2CCOCC2)n1", "0 (no)"],
  ["CC/C=C\\C[C@H](O)C/C=C1/C(=O)C=C[C@@H]1C/C=C\\CCCC(=O)OC", "1 (yes)"],
  ["COC(=O)CCC1=C(C)C2=NC1=CC1=NC(=CC3=NC(=Cc4[nH]c(/c(=C(/C)O)c4C)=C2)C(C(C)=O)=C3C)C(C)=C1CCC(=O)OC", "0 (no)"],
  ["CC1(C)CC[C@]2(C(=O)N3CCOCC3)CC[C@]3(C)C(=CC[C@@H]4[C@@]5(C)CC[C@H](OC(=O)c6cccnc6)C(C)(C)[C@@H]5CC[C@]43C)[C@@H]2C1", "0 (no)"],
  ["CC1CC2Oc3ccc(Cl)cc3C(=O)N2O1 (centres undefined)", "0 (no)"],
  ["Cc1ccc(C(=O)C2=C(O)C(=O)N(Cc3cccnc3)C2c2ccccc2F)o1 (centres undefined)", "0 (no)"],
  ["COc1cc(C(=O)c2cc(C)c3[nH]c4ccc(Cl)cc4c3c2C)cc(OC)c1OC", "0 (no)"],
  ["O=C(/C=C/c1ccco1)c1ccc(Nc2nc(Nc3ccc(F)cc3)nc(Nc3ccc(Cl)cc3)n2)cc1", "0 (no)"],
  ["COc1ccc2[nH]c(O)c(/C=c3/cc4c(c(-c5cc(OC)c(OC)c(OC)c5)n3)=Nc3ccccc3-4)c2c1", "0 (no)"],
  ["N#Cc1c(N)nc(NCCO)nc1-c1ccc(F)cc1", "0 (no)"],
  ["COC1=C(OC)C(=O)C(OC)=C(OC)C1=O", "0 (no)"],
  ["O=C1/C(=C2/C=Nc3ccccc32)N(O)c2ccccc21", "0 (no)"],
  ["CC/C=C\\CCC/C=C1/C(=O)C=C[C@@H]1C/C=C\\CCCC(=O)O", "0 (no)"],
  ["COC(=O)[C@]12CC[C@@H](C)[C@H](C)[C@@H]1C1=CC[C@@H]3[C@@]4(C)C(C=O)=C[C@@](C)(COC(=O)/C=C/c5ccccc5)[C@@H]4[C@H](O)C[C@@]3(C)[C@]1(C)CC2", "1 (yes)"],
  ["O=C(NCCCNc1cc(-c2cn(-c3ccccc3)nc2-c2cccc(O)c2)ccn1)c1ccc(F)cc1", "1 (yes)"],
  ["COc1cccc(/C=C/C(=O)c2c(C)nc3ccccc3c2/C=C/c2ccc(C)cc2)c1OC", "0 (no)"],
  ["COc1cc(/C=C2\\C(=O)ON=C2C)cc(OC)c1OC", "0 (no)"],
  ["COc1ccc(-c2nc(SCCC(C)C)nc(N/N=C\\c3cccc(Cl)c3)c2C#N)cc1", "0 (no)"],
  ["CNc1ccc(NC)c2c1C(=O)c1ccccc1C2=O", "0 (no)"]
]}
